Tested on: Staphylococcus epidermidis
assay method text: Bactericidal activity against gram-positive Staphylococcus epidermidis ATCC 12228 after 24 hrs by broth dilution method
Type: functional
condition summary: ATCC 12228, 24 h
Measured MBC of individual entries
Kindly answer with a numeric value in µM, unit omitted.

Query: Test system Staphylococcus epidermidis; read-out MBC; what value for CCCCCCCCCCC(O)CN(CCO)CC(O)COC[C@H]1O[C@@H]2OC(C)(C)O[C@@H]2[C@H]2OC(C)(C)O[C@H]21 (mixture of isomers) ?
Result: 28

Query: Would you kindly repeat that for CCCCCCCCCCNCCCNCC(O)COC[C@H]1O[C@@H]2OC(C)(C)O[C@@H]2[C@H]2OC(C)(C)O[C@H]21 (mixture of isomers) ?
Result: 15

Query: What about CCCCCCCCCCCCNCCNCC(O)COC[C@H]1O[C@@H]2OC(C)(C)O[C@@H]2[C@H]2OC(C)(C)O[C@H]21 (mixture of isomers) ?
Result: 15

Query: Then this compound: CCCCCCCCCCCCCCN(CCO)CC(O)COC[C@H]1O[C@@H]2OC(C)(C)O[C@@H]2[C@H]2OC(C)(C)O[C@H]21 (mixture of isomers)
Result: 3

Query: Also, CCCCCCCCCCN(CCO)CC(O)COC[C@H]1O[C@@H]2OC(C)(C)O[C@@H]2[C@H]2OC(C)(C)O[C@H]21 (mixture of isomers) please.
Result: 61

Query: Same read-out for CCCCCCCCCCCCN(CCO)CC(O)COC[C@H]1O[C@@H]2OC(C)(C)O[C@@H]2[C@H]2OC(C)(C)O[C@H]21 (mixture of isomers) ?
Result: 4

Query: Please answer likewise for CCCCCCCCCCCCC(O)CN(CCO)CC(O)COC[C@H]1O[C@@H]2OC(C)(C)O[C@@H]2[C@H]2OC(C)(C)O[C@H]21 (mixture of isomers)
Result: 13

Query: Next record, please: CCCCCCCCC(O)CN(CCO)CC(O)COC[C@H]1O[C@@H]2OC(C)(C)O[C@@H]2[C@H]2OC(C)(C)O[C@H]21 (mixture of isomers)
Result: 120

* * *

assay method text: Lipophilicity, log P of the compound
Format: physicochemical
condition summary: octanol/water
value type: logP
Form rule: numeric answer, no unit written next to it.

The cases that follow already have their logP on record.
[[record]]
compound = "CCCCCCCCCCCCCCNCCNCC(O)COC[C@H]1O[C@@H]2OC(C)(C)O[C@@H]2[C@H]2OC(C)(C)O[C@H]21 (mixture of isomers)"
value_type = "logP"
value_measured = 3.56

[[record]]
compound = "CCCCCCCCCCCCN(CCO)C[C@@H](O)COC[C@H]1O[C@@H]2OC(C)(C)O[C@@H]2[C@H]2OC(C)(C)O[C@H]21"
value_type = "logP"
value_measured = 4.22

[[record]]
compound = "CCCCCCCCCCCCNCCO"
value_type = "logP"
value_measured = 3.93


We next turn to a different compound, shown below.
Query: Tell me the measured logP of CCCCCCCCCCNCCNCC(O)COC[C@H]1O[C@@H]2OC(C)(C)O[C@@H]2[C@H]2OC(C)(C)O[C@H]21 (mixture of isomers) , please.
Result: 3.15

* * *

assay method text: Lipophilicity, log P of the compound
Type: physicochemical
condition summary: octanol/water
# logP annotations

[[record]]
compound = "CCCCCCCCCCCCNCCCNCC(O)COC[C@H]1O[C@@H]2OC(C)(C)O[C@@H]2[C@H]2OC(C)(C)O[C@H]21 (mixture of isomers)"
value_measured = 4.09

[[record]]
compound = "CCCCCCCCCCC(O)CN(CCO)CC(O)COC[C@H]1O[C@@H]2OC(C)(C)O[C@@H]2[C@H]2OC(C)(C)O[C@H]21 (mixture of isomers)"
value_measured = 3.37


Query: Reported logP for CCCCCCCCCCCCCCNCCCNCC(O)COC[C@H]1O[C@@H]2OC(C)(C)O[C@@H]2[C@H]2OC(C)(C)O[C@H]21 (mixture of isomers) : what is it?
Result: 4.12
